MEASUREMENT_PROTOCOL: Stability in Japan Pharmacopoeia 1st solution (pH 1.2) at 37° C., with or without stabilizer (TLC densitometry, 232 nm)
Assay type: physicochemical
TEST_PARAMETERS: 150 mg of glycine, value at 30 minutes
PROPERTY_NAME: improvement of stability compared with control, 30 minutes (%)

# COMPOUND, VALUE_UNITS, MEASURED_RESULT
measured = [
    ("CCCC(=O)OC1C(C)OC(OC2C(C)OC(OC3C(CC=O)CC(C)C(O)/C=C/C=C/CC(C)OC(=O)CC(O)C3OC)C(O)C2N(C)C)CC1(C)OC(=O)CC (stereo not shown)", "%", 30),
]

I. CCC(=O)OC1CC(=O)OC(C)C/C=C/C=C/C(OC(C)=O)C(C)CC(CC=O)C(OC2OC(C)C(OC3CC(C)(OC(C)=O)C(OC(=O)CC)C(C)O3)C(N(C)C)C2O)C1OC (stereo not shown)
II. CO[C@@H]1[C@@H](O[C@@H]2O[C@H](C)[C@@H](O[C@H]3C[C@@](C)(O)[C@@H](OC(=O)CC(C)C)[C@H](C)O3)[C@H](N(C)C)[C@H]2O)[C@@H](CC=O)C[C@@H](C)[C@@H](O)/C=C/C=C/C[C@@H](C)OC(=O)C[C@H]1OC(C)=O
Qu. Lab note: check whether I or II shows the higher recorded improvement of stability compared with control, 30 minutes. Answer format: the label of the selected item.
Ans. I
(I: 60%, II: 30%)

###

MEASUREMENT_PROTOCOL: AUC after oral administration of tablets to beagle dogs (bioassay of blood)
Assay type: in vivo
TEST_PARAMETERS: dog, blood, po, 500 mg; read-out: AUC (area under a blood level versus time curve), 10 mg citric acid
PROPERTY_NAME: AUC at 6 h (ng·h/mL)
// return numeric value only (unit: ng·h/mL, not printed)

GET /value?item= CCCC(=O)OC1C(C)OC(OC2C(C)OC(OC3C(CC=O)CC(C)C(O)/C=C/C=C/CC(C)OC(=O)CC(O)C3OC)C(O)C2N(C)C)CC1(C)OC(=O)CC (stereo not shown) &field=AUC at 6 h returns 12300

###

MEASUREMENT_PROTOCOL: Stability in Japan Pharmacopoeia 1st solution (pH 1.2) at 37° C., with or without stabilizer (TLC densitometry, 232 nm)
Format: physicochemical
TEST_PARAMETERS: jp 1st solution, pH 1.2, 1st solution pH 1.2, 37° C., 30 minutes, no stabilizer; read-out: decomposites (balance), 30 minutes
PROPERTY_NAME: degraded at 0.5 h (%)
// return numeric value only (unit: %, not printed)

GET /value?item= CCC(=O)OC1CC(=O)OC(C)C/C=C/C=C/C(O)C(C)CC(CC=O)C(OC2OC(C)C(OC3CC(C)(O)C(OC(=O)CC)C(C)O3)C(N(C)C)C2O)C1OC (stereo not shown) &field=degraded at 0.5 h returns 55

###

MEASUREMENT_PROTOCOL: Stability in Japan Pharmacopoeia 1st solution (pH 1.2) at 37° C., with or without stabilizer (TLC densitometry, 232 nm)
Assay type: physicochemical
TEST_PARAMETERS: jp 1st solution; 1st solution pH 1.2, 37° C., 30 minutes, no stabilizer; read-out: decomposites (balance), 30 minutes
PROPERTY_NAME: degraded at 0.5 h (%)

# COMPOUND, VALUE_UNITS, degraded at 0.5 h
data = [
    ("CCC(=O)O[C@H]1/C=C/C=C/C[C@@H](C)OC(=O)C[C@@H](OC(C)=O)[C@H](OC)[C@@H](O[C@@H]2O[C@H](C)[C@@H](O[C@H]3C[C@@](C)(O)[C@@H](OC(=O)CC(C)C)[C@H](C)O3)[C@H](N(C)C)[C@H]2O)[C@@H](CC=O)C[C@H]1C", "%", 55.8),
    ("CCC(=O)OC1CC(=O)OC(C)C/C=C/C=C/C(OC(C)=O)C(C)CC(CC=O)C(OC2OC(C)C(OC3CC(C)(OC(C)=O)C(OC(=O)CC)C(C)O3)C(N(C)C)C2O)C1OC (stereo not drawn)", "%", 50.6),
    ("CCCC(=O)OC1C(C)OC(OC2C(C)OC(OC3C(CC=O)CC(C)C(O)/C=C/C=C/CC(C)OC(=O)CC(O)C3OC)C(O)C2N(C)C)CC1(C)OC(=O)CC (stereo not drawn)", "%", 39.5),
]

###

MEASUREMENT_PROTOCOL: AUC after oral administration of tablets to beagle dogs (bioassay of blood)
Assay type: in vivo
TEST_PARAMETERS: dog, blood, po, 500 mg; read-out: AUC (area under a blood level versus time curve), 40 mg citric acid
PROPERTY_NAME: AUC at 6 h (µg·h/mL)
// return numeric value only (unit: µg·h/mL, not printed)

GET /value?item= CCCC(=O)OC1C(C)OC(OC2C(C)OC(OC3C(CC=O)CC(C)C(O)/C=C/C=C/CC(C)OC(=O)CC(O)C3OC)C(O)C2N(C)C)CC1(C)OC(=O)CC (stereo not shown) &field=AUC at 6 h returns 20.9

###

MEASUREMENT_PROTOCOL: AUC after oral administration of tablets to beagle dogs (bioassay of blood)
Assay type: in vivo
TEST_PARAMETERS: dog, blood, po, 500 mg; read-out: AUC (area under a blood level versus time curve), 20 mg citric acid
PROPERTY_NAME: AUC at 6 h (ng·h/mL)
// return numeric value only (unit: ng·h/mL, not printed)

GET /value?item= CCCC(=O)OC1C(C)OC(OC2C(C)OC(OC3C(CC=O)CC(C)C(O)/C=C/C=C/CC(C)OC(=O)CC(O)C3OC)C(O)C2N(C)C)CC1(C)OC(=O)CC (stereo not shown) &field=AUC at 6 h returns 17000
